Record type: log10 IC50 measurement. Applies to: Glycogen synthase kinase-3 beta (Homo sapiens, UniProt P49841)
Scale type: logarithmic (base 10). Underlying IC50 unit: nM.

Some entries whose results are on file:
O=C1NC(=O)C(c2cn(CCCO)c3ccccc23)=C1c1coc2ncccc12 :: 2.49
Cn1cc(C2=C(c3coc4ncccc34)C(=O)NC2=O)c2cc(F)ccc21 :: 2.59
Cn1cc(C2=C(c3coc4ncccc34)C(=O)NC2=O)c2cc(Br)ccc21 :: 1.85
O=C1NC(=O)C(c2cn(CCCn3ccnc3)c3ccccc23)=C1c1coc2ncccc12 :: 2.32

Inquiry: Record lookup: for Glycogen synthase kinase-3 beta (Homo sapiens, UniProt P49841), what log10 IC50 belongs to O=C1NC(=O)C(c2cn(CCCN3CCOCC3)c3ccccc23)=C1c1coc2ncccc12 ?
Reply text: 2.84

Inquiry: So what log10 IC50 did Cn1cc(C2=C(c3coc4ncccc34)C(=O)NC2=O)c2ccc(Cl)cc21 get with Glycogen synthase kinase-3 beta (Homo sapiens, UniProt P49841)?
Reply text: 3.26

Inquiry: What value of log10 IC50 on Glycogen synthase kinase-3 beta (Homo sapiens, UniProt P49841) does COc1ccc2c(c1)c(C1=C(c3coc4ncccc34)C(=O)NC1=O)cn2C have?
Reply text: 3.12

Inquiry: Hi! What's the reported log10 IC50 for CCCCn1cc(C2=C(c3coc4ncccc34)C(=O)NC2=O)c2ccccc21 on Glycogen synthase kinase-3 beta (Homo sapiens, UniProt P49841)?
Reply text: 2.76

Inquiry: Give recorded log10 IC50 with Glycogen synthase kinase-3 beta (Homo sapiens, UniProt P49841) for the following compound: Cn1cc(C2=C(c3coc4ncccc34)C(=O)NC2=O)c2cc(Cl)ccc21
Sequence (P49841 whole entry): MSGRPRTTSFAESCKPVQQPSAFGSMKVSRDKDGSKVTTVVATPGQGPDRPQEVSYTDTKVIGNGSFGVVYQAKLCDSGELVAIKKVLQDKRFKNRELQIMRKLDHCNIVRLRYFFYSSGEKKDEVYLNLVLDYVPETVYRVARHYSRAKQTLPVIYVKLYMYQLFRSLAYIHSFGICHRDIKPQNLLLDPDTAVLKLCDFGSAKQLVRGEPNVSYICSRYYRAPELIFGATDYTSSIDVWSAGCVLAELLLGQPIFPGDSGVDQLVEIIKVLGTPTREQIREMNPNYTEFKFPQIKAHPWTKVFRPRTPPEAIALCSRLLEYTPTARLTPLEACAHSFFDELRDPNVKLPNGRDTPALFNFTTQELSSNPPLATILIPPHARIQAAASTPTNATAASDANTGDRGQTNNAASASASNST
Reply text: 2.23

Inquiry: State its log10 IC50 on Glycogen synthase kinase-3 beta (Homo sapiens, UniProt P49841): O=C1NC(=O)C(c2cn(CCCn3ccnc3)c3ccc(Br)cc23)=C1c1coc2ncccc12
Reply text: 2.28
